Recorded TGI by entry
- System: EKVX NSCLC
- EXPERIMENT_SUMMARY: NCI tumour cell line growth inhibition, 48 h

- MOLECULE: "O=[N+]([O-])C(=C1Nc2ccccc2N1)/C(Cl)=C(/Cl)N1CCOCC1"
  TGI: "> 100 µM"

Please find the next molecule below.
Kindly note the recorded TGI for COc1ccc(/C=C2\Sc3nnc(CNc4ccc(Cl)cc4)n3N=C2c2cc(F)c(Cl)cc2Cl)cc1OC , which is > 100 µM

###

Recorded TGI by entry
- Test system: EKVX NSCLC
- EXPERIMENT_SUMMARY: NCI tumour cell line growth inhibition, 48 h

Below, each entry is followed by its recorded TGI result.
- COMPOUND: "Cc1[nH]c(-c2nc3ccccc3[nH]2)c(C)c1C(=O)NC(C)C1CCCCC1 (configuration not stated)"
  RESULT: "23.7 µM"
- COMPOUND: "Cn1c2ccccc2c2c3[nH][nH]c(=O)c3c3c4ccccc4[nH]c3c21"
  RESULT: "8.1 µM"
- COMPOUND: "C/C(=N\\NC(=S)N1CC2CCC(CC2)C1)c1cccc(C)n1"
  RESULT: "4.63 µM"
- COMPOUND: "O=C1C(=O)c2ccccc2C(O)=C1CCCc1ccc(C2CCCCCC2)cc1"
  RESULT: "50.6 µM"
- COMPOUND: "NCCSCc1ccccc1Cl"
  RESULT: "> 100 µM"
- COMPOUND: "COc1ccc(-c2cc(-c3cc(Cl)cc(Br)c3O)[nH]c(=O)n2)cc1"
  RESULT: "27.3 µM"
- COMPOUND: "C[n+]1c(-c2ccc(/C=N/NC(=O)c3ccc(C(=O)N/N=C/c4ccc(-c5cn6ccccc6[n+]5C)cc4)cc3)cc2)cn2ccccc21"
  RESULT: "> 1000 µM"
- COMPOUND: "C(=N\\OCCc1ccccc1)/c1cccnc1"
  RESULT: "> 100 µM"
- COMPOUND: "Cc1nc2ccc(NC3OC(CO)C(O)C(O)C3O)cc2c(=O)n1-c1ccccc1 (configuration not stated)"
  RESULT: "> 100 µM"
- COMPOUND: "C#CC1(O)c2ccccc2C(=O)c2ccccc21"
  RESULT: "> 100 µM"

Kindly note the recorded TGI for CCCNC(=O)c1ccc(Cl)cc1Cl , which is > 100 µM

###

- Test system: OVCAR-3 ovarian
- EXPERIMENT_SUMMARY: NCI tumour cell line growth inhibition, 48 h
Recorded TGI by entry

Kindly note the recorded TGI for CC1(C)C=N[N+]2(C)C3C=CC(CC3)C12 (stereo not given) , which is > 100 µM

Kindly note the recorded TGI for CC1(C)C2CC3C4CC5(Nc6ccccc6C5N41)[C@]3(C)CC2=O (stereo not given in full) , which is > 50 µM

Kindly note the recorded TGI for COc1cc(S(=O)(=O)Nc2ccc(-c3csc(N4C(=O)C(Cl)C4c4ccccc4)n3)cc2)ccc1Cl (stereo not given) , which is > 100 µM

Kindly note the recorded TGI for CSc1nc(NC2OC(COC(C)=O)C(OC(C)=O)C(OC(C)=O)C2OC(C)=O)c(-c2csc(N)n2)c(=O)n1C (stereo not given) , which is > 100 µM

Kindly note the recorded TGI for COc1c(-c2ccc(O)c(O)c2)oc2c(O)c(O)cc(O)c2c1=O , which is > 100 µM

###

Recorded GI50 by entry
- System: HOP-62 NSCLC
- EXPERIMENT_SUMMARY: NCI tumour cell line growth inhibition, 48 h

Below, each entry is followed by its recorded GI50 result.
- MOLECULE: "COc1cc(-c2cc(/C=C/C(=O)c3ccc(Cl)c(Cl)c3)[nH]n2)cc(OC)c1OC"
  RESULT: "1.72 µM"
- MOLECULE: "CCCCC(=O)N/N=C/c1c(O)ccc2ccccc12"
  RESULT: "7.95 µM"
- MOLECULE: "CC(=O)[CH-]C(=O)c1ccccc1.CC(=O)[CH-]C(=O)c1ccccc1.Cl.[O-]c1ccccn1.[O-]c1ccccn1.[Ti+4]"
  RESULT: "> 100 µM"
- MOLECULE: "CCCNC(=O)c1ccc(Cl)cc1Cl"
  RESULT: "> 100 µM"
- MOLECULE: "CCCCNC(=O)c1cc(NCc2cc(O)ccc2O)ccc1O"
  RESULT: "71.8 µM"
- MOLECULE: "CCc1cc2ncc(CN3CCN(c4ccc(C(=O)NC)nc4)CC3)cc2[nH]c1=O"
  RESULT: "55.7 µM"
- MOLECULE: "O=[n+]1c2ccccc2n([O-])c2cc(Cl)ccc21"
  RESULT: "3.15 µM"
- MOLECULE: "Cc1cc2nc3cc(C)c(N)cc3[n+](-c3ccccc3)c2cc1N"
  RESULT: "3.7 µM"

Known value: HOP-62 NSCLC GI50 of the molecule COc1cc(-c2n/c(=C\c3c(O)[nH]c4cc(Cl)ccc34)cc3c2=Nc2ccccc2-3)cc(OC)c1OC equals 2.64 µM

Known value: HOP-62 NSCLC GI50 of the molecule COc1cc2ncnc(Nc3ccc4c(cnn4Cc4ccccc4)c3)c2cc1OC equals > 25 µM

Known value: HOP-62 NSCLC GI50 of the molecule CCN(CC)CCN(Cc1ccc(F)cc1)c1ccc(CO)c(Cl)c1 equals 9.84 µM

Known value: HOP-62 NSCLC GI50 of the molecule Cc1ccc(C2=Nc3c(N)ncnc3NC(c3ccc4c(c3)OCO4)C2)cc1 (configuration not stated) equals > 100 µM

###

- Tested on: NCI-H460 lung
- EXPERIMENT_SUMMARY: NCI tumour cell line growth inhibition, 48 h
Where a SMILES comes first, the peptide text is derived from it.
QUANTITY_MEASURED: TGI

Below, each entry is followed by its recorded TGI result.
- COMPOUND: "O=[N+]([O-])C(=C1Nc2ccccc2N1)/C(Cl)=C(/Cl)N1CCOCC1"
  TGI: "> 100 µM"
- COMPOUND: "CCN(CC)C(=O)N1CCN(C=S)CC1"
  TGI: "> 100 µM"
- COMPOUND: "COC(=O)[C@@H](Cc1ccccc1)N1O[C@]12CCCC[C@@H]2NC(=O)OC(C)(C)C (stereo not given in full)"
  TGI: "90.6 µM"

Kindly note the recorded TGI for CC(C)CC(NC(=O)C(Cc1ccccc1)NC(=O)C(Cc1c[nH]c2ccccc12)NC(=O)CNC(=O)C(N)Cc1ccc(O)cc1)C(=O)O (stereo not given) (H-YGWFL-OH; configuration not given here) , which is > 100 µM

Kindly note the recorded TGI for COc1c(-c2ccc(O)c(O)c2)oc2c(O)c(O)cc(O)c2c1=O , which is > 100 µM

###

- Tested on: SF-268 CNS
- EXPERIMENT_SUMMARY: NCI tumour cell line growth inhibition, 48 h; in the data active means GI50 below about 0.43 µM; inactive means the rest
Valid outcomes are listed here; reply with one: 1 for active, 0 for inactive

Worked examples follow.
- COMPOUND: "C[CH2][Ge]([CH2]C)([CH2]C)[O]C(=O)CCC(=O)[O][Ge]([CH2]C)([CH2]C)[CH2]C"
  ASSIGNED_CLASS: 0
- COMPOUND: "COCCN1CCN(Cc2ccc(-c3n[nH]c4c3C(=O)c3c(NC(=O)NN5CCOCC5)cccc3-4)cc2)CC1"
  ASSIGNED_CLASS: 1
- COMPOUND: "Cc1[nH]c(-c2nc3ccccc3[nH]2)c(C)c1C(=O)NC(C)C1CCCCC1 (configuration not stated)"
  ASSIGNED_CLASS: 0
- COMPOUND: "Cc1[nH]nc2c1N=C(c1ccccc1F)c1cc(C(N)=O)ccc1N2"
  ASSIGNED_CLASS: 0
- COMPOUND: "C=CC/C(=C\\COP(=O)(OCc1ccc([N+](=O)[O-])o1)N(C)CCCCCl)CC/C=C(\\C)CCC=C(C)C (configuration not stated)"
  ASSIGNED_CLASS: 0
- COMPOUND: "CCN(CC)CCN(Cc1ccc(F)cc1)c1ccc(CO)c(Cl)c1"
  ASSIGNED_CLASS: 0

Okay, next one:
Exercise: # outcome recorded in this test, key = Cc1cc(N2CCCC2)nc(NCc2cc(Nc3ccnc4cc(Cl)ccc34)ccc2F)n1
Solution: 0

###

- System: MDA-MB-435
- EXPERIMENT_SUMMARY: NCI tumour cell line growth inhibition, 48 h
QUANTITY_MEASURED: TGI (µM)
Only the number, expressed in µM, is required.

- COMPOUND: "COc1cc(-c2n/c(=C\\c3c(O)[nH]c4cc(Cl)ccc34)cc3c2=Nc2ccccc2-3)cc(OC)c1OC"
  TGI, µM: 51.3

Kindly note the recorded TGI for CC1Cc2cc(O)c(O)cc2-c2cc(O)c(O)cc2CC1C (configuration not stated) , which is 10.5

Kindly note the recorded TGI for COCCN1CCN(Cc2ccc(-c3n[nH]c4c3C(=O)c3c(NC(=O)NN5CCOCC5)cccc3-4)cc2)CC1 , which is 0.424

Kindly note the recorded TGI for Cc1[nH]c(-c2nc3ccccc3[nH]2)c(C)c1C(=O)NC(C)C1CCCCC1 (configuration not stated) , which is 5.85
